Assign EC50 to each entry below.
test system: sub-genomic HCV NS3-NS5B replicon genotype 1b C316N (Huh-7 cells); assay: Replicon luciferase cell based assay, genotype 1b C316N; conditions: Hepatitis C virus, Huh-7, 48 h, read-out: EC50 1b 316N

Some solved cases for reference:
CNC(=O)c1c(-c2ccc(F)cc2)oc2cc(N(c3ccc(B(O)O)cc3F)S(C)(=O)=O)c(C3CC3)cc12 [Example 6]: 11 to 200 nM
CNC(=O)c1c(-c2ccc(F)cc2)oc2cc(N(c3ccc(B(O)O)c(C(F)F)c3)S(C)(=O)=O)c(C3CC3)cc12 [Example 9]: 1 to 10 nM
CNC(=O)c1c(-c2ccc(F)cc2)oc2cc(N(c3ccc(B(O)O)c(C(F)(F)F)c3)S(C)(=O)=O)c(C3CC3)cc12 [Example 10]: 1 to 10 nM
CNC(=O)c1c(-c2ccc(F)cc2)oc2cc(N(c3cccc(CCB(O)O)c3)S(C)(=O)=O)c(C3CC3)cc12 [Example 26]: 11 to 200 nM
CNC(=O)c1c(-c2ccc(F)cc2)oc2cc(N(c3ccc(B(O)O)c(F)c3)S(C)(=O)=O)c(C3CC3)cc12 [Example 5]: 1 to 10 nM

Below is a list of compounds. For each, state its recorded EC50.
1. CNC(=O)c1c(-c2ccc(F)cc2)oc2cc(N(c3ccc(B(O)O)cn3)S(C)(=O)=O)c(C3CC3)cc12 [Example 8]
2. CNC(=O)c1c(-c2ccc(F)cc2)oc2cc(N(c3ccc(C4CCB(O)O4)c(Cl)c3)S(C)(=O)=O)c(C3CC3)cc12 (single isomer, unassigned; enantiomer 1) [Example 28]
3. CNC(=O)c1c(-c2ccc(F)cc2)oc2cc(N(c3ccc(B4OC(C)(C)C(C)(C)O4)c(C)c3)S(C)(=O)=O)c(C3CC3)cc12 [Example 22]
4. CNC(=O)c1c(-c2ccc(F)cc2)oc2cc(N(c3ccc(C4COB(O)C4)c(Cl)c3)S(C)(=O)=O)c(C3CC3)cc12 (stereo not drawn) [Example 25]
5. CNC(=O)c1c(-c2ccc(F)cc2)oc2cc(N(c3ccc(OCB(O)O)c(Cl)c3)S(C)(=O)=O)c(C3CC3)cc12 [Example 19]
6. CNC(=O)c1c(-c2ccc(F)cc2)oc2cc(N(c3ccc4c(c3)CCOB4O)S(C)(=O)=O)c(C3CC3)cc12 [Example 30]
7. CNC(=O)c1c(-c2ccc(F)cc2)oc2cc(N(c3ccc(B(O)O)c(Cl)c3)S(C)(=O)=O)c(C3CC3)cc12 [Example 1]

1. > 1000 nM
2. 11 to 200 nM
3. 1 to 10 nM
4. 11 to 200 nM
5. 1 to 10 nM
6. 1 to 10 nM
7. 1 to 10 nM

---

test: In vivo pharmacokinetic study, mouse; conditions: blood, oral; Mouse (avg)
endpoint: bioavailability (%)
One number for each entry, in %.

CNC(=O)c1c(-c2ccc(F)cc2)oc2cc(N(Cc3cc(F)c4c(c3)COB4O)S(C)(=O)=O)c(C3CC3)cc12: 51

# next molecule below
What does the record list as bioavailability for `CNC(=O)c1c(-c2ccc(F)cc2)oc2cc(N(Cc3ccc(B(O)O)c(F)c3)S(C)(=O)=O)c(C3CC3)cc12` ? 37

---

Assign pEC50 to each entry below.
system: sub-genomic HCV NS3-NS5B replicon genotype 1a C316Y (Huh-7 cells); test: Replicon luciferase cell based assay, genotype 1a C316Y; conditions: Hepatitis C virus, Huh-7, 48 h, read-out: EC50 1a 316Y
pEC50: −log10 of the molar value.

CNC(=O)c1c(-c2ccc(F)cc2)oc2cc(N(c3ccc(B(O)O)cc3)S(C)(=O)=O)c(C3CC3)cc12: 6.00 to 6.70

Below is a list of molecules. For each, state its recorded pEC50.
1. CNC(=O)c1c(-c2ccc(F)cc2)oc2cc(N(c3ccc(C4CCB(O)O4)c(Cl)c3)S(C)(=O)=O)c(C3CC3)cc12 (stereo not drawn) [Example 27]
2. CNC(=O)c1c(-c2ccc(F)cc2)oc2cc(N(c3ccc(B(O)O)c(C#N)c3)S(C)(=O)=O)c(C3CC3)cc12

["6.70 to 7.96", "6.70 to 7.96"]
